Each item that follows carries a reported pIC50.
Target: UniProt:P08709
Sequence (P08709 whole entry): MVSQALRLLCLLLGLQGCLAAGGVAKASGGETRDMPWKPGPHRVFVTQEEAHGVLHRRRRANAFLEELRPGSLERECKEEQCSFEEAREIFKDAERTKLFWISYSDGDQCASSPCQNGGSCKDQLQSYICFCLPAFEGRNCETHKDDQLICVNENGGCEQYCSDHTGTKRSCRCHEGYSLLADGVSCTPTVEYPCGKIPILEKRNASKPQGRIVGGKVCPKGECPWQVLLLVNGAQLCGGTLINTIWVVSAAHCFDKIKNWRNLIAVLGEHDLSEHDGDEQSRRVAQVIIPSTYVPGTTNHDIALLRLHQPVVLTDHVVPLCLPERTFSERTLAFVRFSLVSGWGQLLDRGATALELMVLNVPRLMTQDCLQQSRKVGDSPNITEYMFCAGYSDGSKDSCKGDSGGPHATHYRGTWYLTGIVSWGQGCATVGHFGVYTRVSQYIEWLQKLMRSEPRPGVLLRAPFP
Keep it numeric: pIC50 is minus log10 of the concentration in mol/L.

# MOLECULAR STRING, MEASURE NAME, VALUE OBSERVED
rows = [
    ("COc1ccc(NC(=O)c2nc3c(s2)CN(C)CC3)c(C(=O)Nc2ccc(Cl)cc2)c1", "pIC50", 5.33),
]

IN: Please report the recorded pIC50 for COc1ccc(NC(=O)c2nc3c(s2)CN(C)CC3)c(C(=O)Nc2ccc(C)cn2)c1 .
OUT: 4.96
